- System: CCRIS mutagenicity, Ames/micronucleus/aberration tests
- experiment-description: CCRIS mutagenicity studies
- run-conditions: Test System: AMES SALMONELLA TYPHIMURIUM; Strain/Indicator: TA98; Metabolic Activation: RAT, LIVER, S-9, AROCLOR 1254; Method: STANDARD PLATE
Activity calls are given as the source filed them. No rule for the calls is given here.
measurement-label: mutagenic call

Some compounds with recorded mutagenic call:
Clc1cccc2ccccc12 | inactive; negative
Cc1c(C(=O)O)c(O)cc2c1C(=O)c1c(O)c([C@@H]3O[C@H](CO)[C@@H](O)[C@H](O)[C@H]3O)c(O)c(O)c1C2=O | inactive; negative
O=S(O)O | inactive; negative
CC(C)c1cc(N)c([N+](=O)[O-])cc1N | active; positive
O=C(n1ccnc1)n1ccnc1 | inactive; negative

Req: What does the record list as mutagenic call for S=c1nc[nH]c2nc[nH]c12 ?
Resp: inactive; negative

Req: What does the record list as mutagenic call for Cc1cncc(C)n1 ?
Resp: inactive; negative

Req: What does the record list as mutagenic call for O=[N+]([O-])c1cc(NS(=O)(=O)c2cccc3cccnc23)ccc1Cl ?
Resp: inactive; negative

---

- Tested on: CCRIS mutagenicity, Ames/micronucleus/aberration tests
- experiment-description: CCRIS mutagenicity studies
- run-conditions: Test System: AMES SALMONELLA TYPHIMURIUM; Strain/Indicator: TA104; Metabolic Activation: NONE; Method: STANDARD PLATE
Activity calls are given as the source filed them. How the calls were made is not given here.
Select the matching outcome among active, inactive

Req: Recorded call for NN1C(=O)c2ccccc2C1=O ?
Resp: inactive

Req: Recorded call for O=[N+]([O-])c1ccc(OCC2CO2)cc1 (stereo not drawn) ?
Resp: active

Req: Recorded call for CCn1cc(C(=O)O)c(=O)c2cc(F)c(N3CCNCC3)nc21 ?
Resp: inactive

Req: Recorded call for ClCBr ?
Resp: active

Req: Recorded call for CN=C1C=CC(=C(c2ccc(NC)cc2)c2ccc(N(C)C)cc2)C=C1 ?
Resp: inactive

Req: Recorded call for CC(=O)N(O)c1ccc(Cl)c(Cl)c1 ?
Resp: inactive

Req: Recorded call for ClCCCl ?
Resp: inactive

Req: Recorded call for CC[C@@]1(O)C[C@H](O[C@H]2C[C@H](N(C)C)[C@H](O[C@H]3C[C@H](O)[C@H](O)[C@H](C)O3)C(C)O2)c2c(cc3c(c2O)C(=O)c2c(O)ccc(O)c2C3=O)[C@H]1C(=O)OC (stereo partly drawn) ?
Resp: active

---

- Tested on: CCRIS mutagenicity, Ames/micronucleus/aberration tests
- experiment-description: CCRIS mutagenicity studies
- run-conditions: Test System: AMES SALMONELLA TYPHIMURIUM; Strain/Indicator: TA100; Metabolic Activation: NONE; Method: STANDARD PLATE
Activity calls are given as the source filed them. The rule behind the calls is not given here.
Select the matching outcome among t = active, f = inactive

Req: Recorded call for O=CC1CO1 (stereo not drawn) ?
Resp: t

Req: Recorded call for NCCNCCNCCN ?
Resp: t

Req: Recorded call for Oc1c(Br)cc(Br)cc1Br ?
Resp: f

Req: Recorded call for COc1ccc(N)cc1 ?
Resp: f

Req: Recorded call for O=C(Nc1ccccc1)Nc1snc2ccccc12 ?
Resp: f

Req: Recorded call for Cc1c2ccccc2cc2ccccc12 ?
Resp: f

Req: Recorded call for ClCc1cc2cccc3ccc4cc5ccccc5c1c4c32 ?
Resp: t

Req: Recorded call for CCCCC/C=C/C(=O)CCc1ccc(O)c(OC)c1 ?
Resp: f

Req: Recorded call for Cn1ccnc1[N+](=O)[O-] ?
Resp: t

Req: Recorded call for CC(C)=CC1C(C(=O)O)C1(C)C (stereo not drawn) ?
Resp: f

Req: Recorded call for O=C(Nc1cccc(Br)c1)c1csc([N+](=O)[O-])c1 ?
Resp: t

Req: Recorded call for CC1(C)CC2=C(C=O)[C@@]3(C=O)C[C@@]3(C)[C@@H](O)[C@@H]2C1 ?
Resp: t

Req: Recorded call for Cc1cc2c(c(O)c1O)C(=O)c1c(O)cc(O)cc1C2=O ?
Resp: f

Req: Recorded call for COC(=O)c1occ(-c2ccccc2)c1-c1ccccc1 ?
Resp: f

Req: Recorded call for C1=C/CCC2OC2CC/C=C/CC/1 (stereo not drawn) ?
Resp: f

Req: Recorded call for ONc1ncnc2c1ncn2Cc1ccccc1 ?
Resp: t

Req: Recorded call for COc1ccc(CN2C3c4ccccc4-c4ccccc4C32)cc1 (stereo not drawn) ?
Resp: t

Req: Recorded call for Cc1ncc2c(n1)CCC2 ?
Resp: f

Req: Recorded call for COC(=O)[C@@H]1CS[C@@H]2C(Cl)=C(Cl)C(=O)N21 ?
Resp: t

Req: Recorded call for CC(C)(C)c1ccc(/C=C/c2ccc(N)cc2)cc1 ?
Resp: f

Req: Recorded call for COc1cc([C@H]2OC[C@H]3[C@@H]2CO[C@@H]3c2cc(OC)c(OC)c(OC)c2)cc(OC)c1OC ?
Resp: f

Req: Recorded call for Cc1cccc(NC(=O)c2csc([N+](=O)[O-])c2)c1 ?
Resp: t

Req: Recorded call for O=[N+]([O-])c1ccc2ccc3ccccc3c2c1 ?
Resp: t

Req: Recorded call for COc1ccccc1CC1CO1 (stereo not drawn) ?
Resp: t

Req: Recorded call for OCCNc1ccc(N=Nc2ccc(N(CCO)CCO)cc2)cc1 ?
Resp: f

Req: Recorded call for CC(C)Cc1ccc(C(C)C(=O)O)cc1 (stereo not drawn) ?
Resp: f

Req: Recorded call for C=C[Si](C)(Cl)Cl ?
Resp: f

Req: Recorded call for CS(=O)CCC(=O)N1[C@@H](c2ccccc2O)SC[C@H]1C(=O)O (stereo partly drawn) ?
Resp: f

Req: Recorded call for CCc1cn([C@H]2C[C@H](O)[C@@H](CO)O2)c(=O)[nH]c1=O ?
Resp: f

Req: Recorded call for CN1CC[C@@]2(C)c3cc(O)ccc3N(C)[C@@H]12 ?
Resp: f

Req: Recorded call for OC1C=CC=CC1O (stereo not drawn) ?
Resp: f

Req: Recorded call for CN(C)c1ccc(C(=O)c2ccc(N(C)C)cc2)cc1 ?
Resp: f

Req: Recorded call for COc1ccc(/C=C/c2ccc(N)cc2)cc1 ?
Resp: f

Req: Recorded call for NCC(=O)O ?
Resp: f

Req: Recorded call for Cc1ccc2nsc(NC(=O)C(Cl)(Cl)Cl)c2c1 ?
Resp: t

Req: Recorded call for CC(=O)N(O)c1ccc(Cl)cc1 ?
Resp: f

Req: Recorded call for O=[N+]([O-])c1cc2[nH]c3ccc4ccccc4c3c2c2cccc(O)c12 ?
Resp: t

Req: Recorded call for FC(F)(F)c1ccccc1CN1C2c3ccccc3-c3ccccc3C21 (stereo not drawn) ?
Resp: t

Req: Recorded call for O=[N+]([O-])c1c(Cl)c(Cl)c2c(c1Cl)Oc1cc(Cl)c(Cl)cc1O2 ?
Resp: f

Req: Recorded call for Cc1ncc[nH]1 ?
Resp: f

Req: Recorded call for OC[C@H]1O[C@@H](n2cnc3c(=S)nc[nH]c32)[C@H](O)[C@@H]1O ?
Resp: t

Req: Recorded call for CCOc1cc(N=Nc2ccccc2)ccc1N=Nc1c(S(=O)(=O)O)cc2ccc(N)cc2c1O ?
Resp: f

Req: Recorded call for O=C(/C=C/c1ccc([N+](=O)[O-])cc1)c1ccc([N+](=O)[O-])cc1 ?
Resp: f

---

- System: CCRIS mutagenicity, Ames/micronucleus/aberration tests
- experiment-description: CCRIS mutagenicity studies
- run-conditions: Test System: AMES SALMONELLA TYPHIMURIUM; Strain/Indicator: TA100; Metabolic Activation: NONE; Method: STANDARD PLATE
Active and inactive are the calls of the source. How the calls were made is not given here.
Select the matching outcome among 1 = active, -1 = inactive

Req: Recorded call for Cc1ccc(CCl)cc1 ?
Resp: -1

Req: Recorded call for COC(=O)c1ccc(C(=O)OC)cc1 ?
Resp: -1

Req: Recorded call for COc1cc(-c2ccc(-[n+]3nc(-c4ccccc4)nn3-c3ccc([N+](=O)[O-])cc3)c(OC)c2)ccc1-[n+]1nc(-c2ccccc2)nn1-c1ccc([N+](=O)[O-])cc1 ?
Resp: 1

Req: Recorded call for c1ccc(-c2ccc(CC3CO3)cc2)cc1 (stereo not given) ?
Resp: 1

Req: Recorded call for CCOC(=O)CC(=O)CCl ?
Resp: -1

Req: Recorded call for C=CCN=C=S ?
Resp: -1

Req: Recorded call for C=CCCCCCCCCCCC ?
Resp: -1

Req: Recorded call for CC(C)c1cc(N)c([N+](=O)[O-])cc1N ?
Resp: -1

Req: Recorded call for Clc1cccc2oc3ccccc3c12 ?
Resp: -1

Req: Recorded call for O=C1c2ccccc2-c2c1c1ccccc1c(=O)n2CCNCCO ?
Resp: -1

Req: Recorded call for O=C1C=CC(=C(Cl)Cl)O1 ?
Resp: 1

Req: Recorded call for O=S1(=O)c2cccc3ccc4c5ccccc5cc1c4c23 ?
Resp: 1

Req: Recorded call for CC1=CC(=O)c2c(O)cccc2C1=O ?
Resp: -1

Req: Recorded call for O=C1CCC(N2C(=O)c3ccccc3C2=O)C(=O)N1 (stereo not given) ?
Resp: -1

Req: Recorded call for O=[N+]([O-])c1ccc(-c2ccccc2)cc1 ?
Resp: 1

Req: Recorded call for O[C@H]1C=Cc2cccnc2[C@@H]1O ?
Resp: -1

Req: Recorded call for O=C(NCc1ccccc1)C(Cl)c1ccccc1 (stereo not given) ?
Resp: 1

Req: Recorded call for O=[N+]([O-])c1c2ccccc2c2ccc3cccc4ccc1c2c43 ?
Resp: -1

Req: Recorded call for ClC(Cl)Br ?
Resp: -1

Req: Recorded call for Cc1c([N+](=O)[O-])c(C)c([N+](=O)[O-])c(C(C)(C)C)c1[N+](=O)[O-] ?
Resp: -1
